Values were extracted from patent US20070259965A1.

Property: EC50; scope: individual compounds
- MEASUREMENT_TARGET: TRPV4 channel receptor (Homo sapiens)
- Construct: expressed in transfected cells; host or cells: HEK cells
- Sequence (Q9HBA0 whole entry): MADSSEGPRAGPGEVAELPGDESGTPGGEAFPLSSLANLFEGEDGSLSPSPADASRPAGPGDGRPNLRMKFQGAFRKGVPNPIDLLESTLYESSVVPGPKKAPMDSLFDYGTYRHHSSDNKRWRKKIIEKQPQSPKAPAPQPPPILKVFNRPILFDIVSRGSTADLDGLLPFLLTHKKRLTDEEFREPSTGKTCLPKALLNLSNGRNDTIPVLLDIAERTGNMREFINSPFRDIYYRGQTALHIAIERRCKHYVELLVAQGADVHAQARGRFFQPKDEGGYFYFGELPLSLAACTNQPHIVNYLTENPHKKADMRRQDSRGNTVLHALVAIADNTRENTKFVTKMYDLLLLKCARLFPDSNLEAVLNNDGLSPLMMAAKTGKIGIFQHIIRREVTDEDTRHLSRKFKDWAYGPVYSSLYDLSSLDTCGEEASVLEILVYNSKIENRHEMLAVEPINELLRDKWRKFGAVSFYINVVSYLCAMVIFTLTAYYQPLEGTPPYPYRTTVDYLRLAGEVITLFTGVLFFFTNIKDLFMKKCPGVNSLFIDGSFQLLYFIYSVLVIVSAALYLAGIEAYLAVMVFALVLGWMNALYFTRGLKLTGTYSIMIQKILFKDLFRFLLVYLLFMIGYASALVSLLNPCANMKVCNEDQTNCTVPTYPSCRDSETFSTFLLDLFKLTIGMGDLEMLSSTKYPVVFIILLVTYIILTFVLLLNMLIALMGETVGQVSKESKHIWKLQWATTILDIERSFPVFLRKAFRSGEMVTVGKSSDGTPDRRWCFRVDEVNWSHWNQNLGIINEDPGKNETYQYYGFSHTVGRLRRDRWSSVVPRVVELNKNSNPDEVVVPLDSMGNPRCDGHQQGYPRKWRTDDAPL
- ASSAY_NOTES: FLIPR assay using TRPV4 expressing HEK cells
- Assay type: cell-based
- DETAILS: FLIPR method; pEC50 = −log10(EC50 μM)

Take a look at these entries with their results.
ENTRY_SMILES: CC(C)C[C@H](NC(=O)c1cc2ccccc2s1)C(=O)NCCCN(C)S(=O)(=O)c1c(Cl)cc(Cl)cc1Cl
EC50: 1 to 7.94 µM
//
ENTRY_SMILES: CC(C)C[C@H](NC(=O)c1cn2nc(Cl)ccc2n1)C(=O)NCCCN(C)S(=O)(=O)c1ccccc1C#N
EC50: 10 to 20 µM

Attention now turns to another entry.
Inquiry: Find EC50 (TRPV4 channel receptor (Homo sapiens)) for the entry CC(C)C[C@H](NC(=O)c1cc2ccccc2s1)C(=O)NCCCN(C)S(=O)(=O)c1ccc(F)cc1Cl
Reply text: 0.1 to 0.794 µM
